Known % activity* of a selection of binders
- system_tested: glucagon receptor (human, UniProt P47871 26-477)
- Sequence (P47871 26-477): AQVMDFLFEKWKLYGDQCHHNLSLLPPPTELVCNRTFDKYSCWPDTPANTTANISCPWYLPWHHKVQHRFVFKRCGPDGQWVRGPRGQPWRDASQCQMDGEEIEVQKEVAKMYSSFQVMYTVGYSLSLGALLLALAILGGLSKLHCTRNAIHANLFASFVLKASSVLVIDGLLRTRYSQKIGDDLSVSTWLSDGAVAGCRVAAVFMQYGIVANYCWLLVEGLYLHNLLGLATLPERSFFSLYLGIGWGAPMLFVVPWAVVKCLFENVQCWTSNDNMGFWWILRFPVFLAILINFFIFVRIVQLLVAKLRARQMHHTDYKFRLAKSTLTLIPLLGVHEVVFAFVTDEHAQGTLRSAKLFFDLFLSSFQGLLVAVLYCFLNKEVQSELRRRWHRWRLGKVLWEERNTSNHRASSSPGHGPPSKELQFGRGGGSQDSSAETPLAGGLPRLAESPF
- method_description: cell-based or functional assay
Square brackets hold non-standard residues; d marks the D form. Ends that are not written are not given here. * marks the point of attachment. Met(O) = CS(=O)CC[C@H](N)C(=O)O; Nle = CCCC[C@H](N)C(=O)O; Orn = NCCC[C@H](N)C(=O)O; Dap = NC[C@H](N)C(=O)O; Carbamoyl = NC(=O)*
State the value, then name its unit.

INSERT INTO results (binder, reading) VALUES
  ('HS[Orn](Ac)GTFTSDYSKYLDTRRAAEFVAWL[Nle]DE [Peptide J backbone, Orn(Ac) at position 3]', '7%');

I'd like to know its % activity*. The binder in question is HS[Met(O)]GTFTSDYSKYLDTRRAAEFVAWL[Nle]DE [Peptide J backbone, M(O) at position 3] 7%

I'd like to know its % activity*. The binder in question is HS[Dap](Carbamoyl)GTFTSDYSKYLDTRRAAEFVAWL[Nle]DE [Peptide J backbone, Dap(urea) at position 3] 13%
